src = ChEMBL document CHEMBL3217465

test.system: Lysophosphatidic acid receptor 3 (Homo sapiens, UniProt Q9UBY5)
Sequence (Q9UBY5 whole entry): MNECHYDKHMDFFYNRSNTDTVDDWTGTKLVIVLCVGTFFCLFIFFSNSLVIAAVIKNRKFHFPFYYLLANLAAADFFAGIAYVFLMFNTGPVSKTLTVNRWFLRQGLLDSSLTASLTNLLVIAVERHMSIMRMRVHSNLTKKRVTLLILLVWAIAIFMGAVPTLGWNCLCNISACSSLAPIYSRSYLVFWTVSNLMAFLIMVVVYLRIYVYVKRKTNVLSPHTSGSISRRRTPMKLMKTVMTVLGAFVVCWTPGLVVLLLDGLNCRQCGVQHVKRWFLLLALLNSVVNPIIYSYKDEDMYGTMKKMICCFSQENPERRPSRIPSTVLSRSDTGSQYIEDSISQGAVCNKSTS
assay.remarks: Competitive antagonist activity at N-terminal 3XHA-tagged human LPA3 receptor overexpressed in CHO cells assessed as inhibition of LPA-induced [35S]GTPgammaS binding by liquid scintillation counting
quantity.measured: Ki (nM)

(a) CCCCCCCCCCCCCCCC(=O)N[C@@H](/C=C/P(=O)(O)O)Cc1ccc(OCc2cc(OCC(F)(F)F)ccn2)cc1
(b) CCCCCCCCCCCCCCCCCC(=O)N[C@@H](COP(=O)(O)O)Cc1ccc(OCc2cc(OCC(F)(F)F)ccn2)cc1
Lookup: Hi team, can someone confirm which has the larger Ki: a or b ? Thanks. Answer = label.
Found: a
(a: 512 nM, b: 48 nM)
